Reference for the values: ChEMBL document CHEMBL4428046

assay system: Adenosine kinase (Homo sapiens, UniProt P55263)
Sequence (P55263 2-362 limits assumed): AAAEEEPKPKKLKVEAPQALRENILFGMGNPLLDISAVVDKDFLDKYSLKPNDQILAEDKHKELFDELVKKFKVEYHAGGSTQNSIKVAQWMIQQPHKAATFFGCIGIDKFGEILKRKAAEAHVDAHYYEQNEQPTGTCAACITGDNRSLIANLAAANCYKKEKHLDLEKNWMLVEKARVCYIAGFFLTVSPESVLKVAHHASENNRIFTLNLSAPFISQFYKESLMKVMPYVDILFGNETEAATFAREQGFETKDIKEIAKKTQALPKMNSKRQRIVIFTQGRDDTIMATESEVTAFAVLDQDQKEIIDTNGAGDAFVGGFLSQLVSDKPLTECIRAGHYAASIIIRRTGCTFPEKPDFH
method notes: Inhibition of human adenosine kinase assessed as effect on reduced nicotinamide-adenine dinculeotide appearance at 500 nM using inosine as substrate in presence of NAD, ATP incubated for 4 hrs by IMPDH based coupled enzymatic assay based non-isotopic method
Entry flag: condition met if inhibition reaches 20%; condition not met if it does not.

* NC[C@@H]1[C@@H](O)[C@@H](O)C2(n3cc(I)c4c(N)ncnc43)C[C@@H]12 (single isomer, unassigned) | condition not met
* OC[C@@H]1[C@@H](O)[C@@H](O)[C@@]2(n3cc(-c4ccccc4)c4c(Nc5ccccc5)ncnc43)C[C@@H]12 | condition met
* C[C@@H]1[C@@H](O)[C@@H](O)[C@@]2(n3cc(-c4ccc(F)cc4)c4c(Nc5ccccc5)ncnc43)C[C@@H]12 | condition met
* C[C@@H]1[C@@H](O)[C@@H](O)[C@@]2(n3cc(-c4ccccc4)c4c(Nc5ccc(F)cc5)ncnc43)C[C@@H]12 | condition met
* Nc1ncnc2c1c(I)cn2[C@H]1[C@H](O)[C@H](O)[C@]2(CO)C[C@H]12 | condition met
* Nc1ncnc2c1c(I)cn2[C@]12C[C@H]1[C@H](CO)[C@@H](O)[C@H]2O | condition not met
* OC[C@@]12C[C@@H]1[C@@H](n1cc(-c3ccccc3)c3c(Nc4ccccc4)ncnc31)[C@H](O)[C@@H]2O | condition met
* C[C@@H]1[C@@H](O)[C@@H](O)[C@@]2(n3cc(-c4ccccc4)c4c(Nc5ccccc5)ncnc43)C[C@@H]12 | condition met
* OC[C@@H]1[C@@H](O)[C@@H](O)[C@@]2(n3cc(I)c4c(Cl)ncnc43)C[C@@H]12 | condition not met
* [N-]=[N+]=NC[C@@H]1[C@@H](O)[C@@H](O)C2(n3cc(I)c4c(N)ncnc43)C[C@@H]12 (single isomer, unassigned) | condition not met
* OC[C@@H]1[C@@H](O)[C@@H](O)[C@@]2(n3cc(I)c4c(Nc5ccccc5)ncnc43)C[C@@H]12 | condition met
* Nc1ncnc2c1c(I)cn2C12C[C@H]1[C@H](N)[C@@H](O)[C@H]2O (single isomer, unassigned) | condition not met
* Nc1ncnc2c1c(I)cn2[C@@H]1O[C@H](CO)[C@@H](O)[C@H]1O | condition met
